# System: Aerobactin synthetase IucA (Klebsiella pneumoniae)
# method-summary: IucA aerobactin synthetase inhibitors, biochemical, Tocris library, absorbance (AID 1345561);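 also: 100% = enzyme without compound and 0% = no enzyme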
# condition-summary: purified IucA enzyme assay, absorbance (OD) read-out; active compounds read low;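 tested at 8 µM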
attribute-measured: remaining activity (%)

[
  {
    "compound": "O=C1Nc2ccc(I)cc2/C1=C/c1cc(Br)c(O)c(Br)c1",
    "number": 117
  },
  {
    "compound": "Nc1ccc(-c2nc3ccc(-c4nc5ccc(N)cc5[nH]4)cc3[nH]2)cc1",
    "number": 107
  },
  {
    "compound": "O=C(NCCNCC(O)COc1ccc(O)cc1)N1CCOCC1 (configuration not stated)",
    "number": 86.3
  },
  {
    "compound": "Clc1ccc(N2CCN(Cc3c[nH]c4ncccc34)CC2)cc1",
    "number": 95.2
  },
  {
    "compound": "O=C1CCc2c(ccc3ccccc23)O1",
    "number": 100
  },
  {
    "compound": "O=C1C(Cl)=C(NCCN2CCOCC2)C(=O)c2ncccc21",
    "number": 118
  },
  {
    "compound": "S=C(S)N1CCCC1",
    "number": 87.7
  },
  {
    "compound": "Oc1cc2c(c(Cl)c1O)CCNCC2c1ccccc1 (configuration not stated)",
    "number": 120
  },
  {
    "compound": "CC(C)(C=O)Cc1cc(C(C)(C)C)c(O)c(C(C)(C)C)c1",
    "number": 125
  },
  {
    "compound": "Cc1cccc(C(=O)NCN2CCN(c3ccccc3C#N)CC2)c1",
    "number": 92.5
  },
  {
    "compound": "CN1[C@@H](CC(=O)c2ccccc2)CCC[C@H]1C[C@H](O)c1ccccc1",
    "number": 122
  },
  {
    "compound": "CC(C)(Sc1ccc(CCN(CCCCC2CCCCC2)C(=O)NC2CCCCC2)cc1)C(=O)O",
    "number": 122
  }
]
